TEST_TARGET: HLA-A*30:01
ASSAY: IEDB peptide-MHC binding, purified MHC/direct/fluorescence; filed as Kd, often an IC50 or EC50 that approximates it; bounds were set here for any values at or beyond the usual limits of such assays
CONDITION_SUMMARY: source organism: Vibrio vulnificus
VALUE_KIND: Kd (µM)
Form entry: value (µM) — number only.

Recorded Kd for `QKDINTPGY` , please?
9.37

---

TEST_TARGET: HLA-C*12:03
ASSAY: IEDB peptide-MHC binding, purified MHC/direct/fluorescence; filed as Kd, often an IC50 or EC50 that approximates it; bounds were set here for any values at or beyond the usual limits of such assays
CONDITION_SUMMARY: source organism: Rickettsia bellii RML369-C
VALUE_KIND: Kd

Recorded Kd for `FAYKTGSSM` , please?
≤ 1 nM

---

TEST_TARGET: HLA-A*02:03
ASSAY: IEDB peptide-MHC binding, purified MHC/competitive/radioactivity; filed as Kd, often an IC50 or EC50 that approximates it; bounds were set here for any values at or beyond the usual limits of such assays
CONDITION_SUMMARY: source organism: Dengue virus 2 Jamaica/1409/1983
VALUE_KIND: Kd (nM)
Form entry: value (nM) — number only.

Recorded Kd for `VLNPYMPSV` , please?
6.6

---

TEST_TARGET: HLA-B*08:01
ASSAY: IEDB peptide-MHC binding, purified MHC/competitive/fluorescence; bounds were set here for any values at or beyond the usual limits of such assays
CONDITION_SUMMARY: source organism: Zaire ebolavirus
VALUE_KIND: IC50 (µM)
Form entry: value (µM) — number only.

Recorded IC50 for `FQRTFSIPL` , please?
5.48

Recorded IC50 for `HKNKFMAIL` , please?
42.7

Recorded IC50 for `NFHQKKNEI` , please?
66.1

---

TEST_TARGET: HLA-B*44:02
ASSAY: IEDB peptide-MHC binding, purified MHC/direct/fluorescence; filed as Kd, often an IC50 or EC50 that approximates it; bounds were set here for any values at or beyond the usual limits of such assays
CONDITION_SUMMARY: source organism: dengue virus type 3
VALUE_KIND: Kd

Report Kd for `TSEHGGRAY` tested on HLA-B*44:02.
≥ 20 µM

---

TEST_TARGET: HLA-A*24:02
ASSAY: IEDB peptide-MHC binding, purified MHC/competitive/radioactivity; filed as Kd, often an IC50 or EC50 that approximates it; bounds were set here for any values at or beyond the usual limits of such assays
CONDITION_SUMMARY: source organism: Mammarenavirus mopeiaense
VALUE_KIND: Kd

Report Kd for `IKIPTHRHI` tested on HLA-A*24:02.
≥ 57.1 µM

---

TEST_TARGET: HLA-B*40:01
ASSAY: IEDB peptide-MHC binding, purified MHC/competitive/radioactivity; filed as Kd, often an IC50 or EC50 that approximates it; bounds were set here for any values at or beyond the usual limits of such assays
CONDITION_SUMMARY: source organism: SARS coronavirus Tor2
pKd: −log10 of the molar value.
# cutoff 7 applies to pKd; >= gives 1, < gives 0

Tell me whether pKd is at least 7 here: `FELCDNPFF`
1

Tell me whether pKd is at least 7 here: `LEGYAFEHIV`
0

Tell me whether pKd is at least 7 here: `FEYISDAFSL`
1

Tell me whether pKd is at least 7 here: `GEVLSLDKL`
1

Tell me whether pKd is at least 7 here: `GEENFSSRMY`
0

Tell me whether pKd is at least 7 here: `NEYRQYLDA`
0

Tell me whether pKd is at least 7 here: `SDRVVFVLWA`
0

Tell me whether pKd is at least 7 here: `LEGSVRVVT`
0

---

TEST_TARGET: HLA-B*45:01
ASSAY: IEDB peptide-MHC binding, purified MHC/competitive/radioactivity; filed as Kd, often an IC50 or EC50 that approximates it; bounds were set here for any values at or beyond the usual limits of such assays
CONDITION_SUMMARY: source organism: Mammarenavirus lassaense
VALUE_KIND: pKd
The quantity pKd is defined as the negative base-10 logarithm of the molar concentration.

Recorded pKd for `KEAYCQEFFL` , please?
4.81

---

TEST_TARGET: HLA-A*01:01
ASSAY: IEDB peptide-MHC binding, purified MHC/direct/fluorescence; filed as Kd, often an IC50 or EC50 that approximates it; bounds were set here for any values at or beyond the usual limits of such assays
CONDITION_SUMMARY: source organism: Influenza A virus (A/quail/Hong Kong/FY298/00(H9N2))
VALUE_KIND: Kd

Report Kd for `TKDAERGKL` tested on HLA-A*01:01.
≥ 20 µM

---

So I've got a bunch of sequences here, and I need their pIC50 values.
TEST_TARGET: HLA-A*24:02
ASSAY: IEDB peptide-MHC binding, purified MHC/competitive/fluorescence; bounds were set here for any values at or beyond the usual limits of such assays
CONDITION_SUMMARY: source organism: Sudan ebolavirus
The quantity pIC50 is defined as the negative base-10 logarithm of the molar concentration.

Report pIC50 for `FHKDGAFFL` tested on HLA-A*24:02.
5.17

Report pIC50 for `YYATSYLEY` tested on HLA-A*24:02.
6.17

Report pIC50 for `AFHKDGAFF` tested on HLA-A*24:02.
5.01

Report pIC50 for `GTNGNHMQI` tested on HLA-A*24:02.
5.52

---

TEST_TARGET: HLA-C*03:03
ASSAY: IEDB peptide-MHC binding, purified MHC/direct/fluorescence; filed as Kd, often an IC50 or EC50 that approximates it; bounds were set here for any values at or beyond the usual limits of such assays
CONDITION_SUMMARY: source organism: Human herpesvirus 4 strain B95-8
VALUE_KIND: pKd
The quantity pKd is defined as the negative base-10 logarithm of the molar concentration.

Recorded pKd for `FYNIPPMPL` , please?
7.29

---

TEST_TARGET: HLA-B*51:01
ASSAY: IEDB peptide-MHC binding, purified MHC/competitive/radioactivity; filed as Kd, often an IC50 or EC50 that approximates it; bounds were set here for any values at or beyond the usual limits of such assays
CONDITION_SUMMARY: source organism: Hepatitis C virus (isolate 1)
pKd: −log10 of the molar value.
VALUE_KIND: pKd

Recorded pKd for `KLVALGINAV` , please?
≤ 4.33

---

TEST_TARGET: HLA-A*11:01
ASSAY: IEDB peptide-MHC binding, purified MHC/competitive/fluorescence; filed as Kd, often an IC50 or EC50 that approximates it; bounds were set here for any values at or beyond the usual limits of such assays
CONDITION_SUMMARY: source organism: Listeria monocytogenes J0161
VALUE_KIND: Kd

Recorded Kd for `AALEGLSGF` , please?
≥ 5 µM

---

TEST_TARGET: HLA-A*23:01
ASSAY: IEDB peptide-MHC binding, purified MHC/direct/fluorescence; filed as Kd, often an IC50 or EC50 that approximates it; bounds were set here for any values at or beyond the usual limits of such assays
CONDITION_SUMMARY: source organism: Marburg virus - Musoke, Kenya, 1980
VALUE_KIND: pKd
The quantity pKd is defined as the negative base-10 logarithm of the molar concentration.

Recorded pKd for `GFPSLESSF` , please?
7.26

---

TEST_TARGET: HLA-A*02:01
ASSAY: IEDB peptide-MHC binding, purified MHC/direct/fluorescence; filed as Kd, often an IC50 or EC50 that approximates it; bounds were set here for any values at or beyond the usual limits of such assays
CONDITION_SUMMARY: source organism: Vibrio cholerae
VALUE_KIND: Kd

Recorded Kd for `GEHWLGRIW` , please?
≥ 20 µM

Recorded Kd for `VLKLRFWLI` , please?
≥ 20 µM

Recorded Kd for `AEIDRSFKP` , please?
≥ 20 µM

---

TEST_TARGET: HLA-B*27:05
ASSAY: IEDB peptide-MHC binding, purified MHC/direct/fluorescence; filed as Kd, often an IC50 or EC50 that approximates it; bounds were set here for any values at or beyond the usual limits of such assays
CONDITION_SUMMARY: source organism: Corynebacterium glutamicum
pKd: −log10 of the molar value.
VALUE_KIND: pKd

Report pKd for `ATFSRPGSL` tested on HLA-B*27:05.
≤ 4.70

---

TEST_TARGET: HLA-A*11:01
ASSAY: IEDB peptide-MHC binding, purified MHC/competitive/fluorescence; bounds were set here for any values at or beyond the usual limits of such assays
CONDITION_SUMMARY: source organism: Zaire ebolavirus
VALUE_KIND: IC50 (µM)
Form entry: value (µM) — number only.

Recorded IC50 for `QAKKDFFSS` , please?
66.8

Recorded IC50 for `STHNTPVYK` , please?
0.44

Recorded IC50 for `LFLESGAVK` , please?
68.8

Recorded IC50 for `QVEQHHRRT` , please?
0.543

Recorded IC50 for `VLDHILQKT` , please?
55
